Values compiled from paper PMC8645912.

# Assay type: in vivo, human
# condition-notes: human, plasma, oral, Mean AUC (SD), patients with relevant toxicity

compound	AUC
COc1cc2nccc(Oc3ccc(NC(=O)C4(C(=O)Nc5ccc(F)cc5)CC4)cc3)c2cc1OC [cabozantinib]	28600 ng·h/mL

* * *

# assay-protocol: PK/PD relation for efficacy: cabozantinib PK at progressive disease
# Format: in vivo, human
# condition-notes: human, plasma, oral, Mean AUC (SD), SD/PR patients (disease control)

compound	AUC, ng·h/mL
COc1cc2nccc(Oc3ccc(NC(=O)C4(C(=O)Nc5ccc(F)cc5)CC4)cc3)c2cc1OC [cabozantinib]	24600

* * *

# assay-protocol: PK/PD relation for efficacy: cabozantinib PK at progressive disease
# Format: in vivo, human
# condition-notes: human, plasma, oral, Median AUC (IQR), patients with progressive disease (PD)

compound	AUC, ng·h/mL
COc1cc2nccc(Oc3ccc(NC(=O)C4(C(=O)Nc5ccc(F)cc5)CC4)cc3)c2cc1OC [cabozantinib]	16000
